Recorded values, source the METLIN SMRT retention time set (Domingo-Almenara et al. 2019).

- PROCEDURE_SUMMARY: gradient 5% acetonitrile 3 min, to 50% in 2 min, to 85% in 15 min, held 3 min, 100 µL/min
- REPORTED_CONDITIONS: column: Zorbax Extend-C18 2.1 x 50 mm; eluents: water / acetonitrile, 0.1% formic acid
READOUT_KIND: RP-LC retention time (s)

compound=CN(C)CC1CCN(C(=O)NC2CCCCC2)CC1 readout_kind="RP-LC retention time" reading_unit=s obs_value=570
compound="O=C(Nc1nccs1)C1CCN(C(=O)C2CC(=O)N(c3ccccc3)C2)CC1 (stereo not given)" readout_kind="RP-LC retention time" reading_unit=s obs_value=658
compound=COc1ccc(NC(=O)Cn2ccc3sccc3c2=O)cc1 readout_kind="RP-LC retention time" reading_unit=s obs_value=706

A. O=C(Cn1c(=O)nc(-c2ccccc2)c2ccccc21)NCCc1ccccn1
B. CCOC(=O)c1sc(NCCc2c[nH]c3ccc(OC)cc23)nc1-c1ccccc1
Could you kindly indicate whether A or B has the higher RP-LC retention time value? Refer to your chosen item by its label in the answer.
B

###

- PROCEDURE_SUMMARY: gradient 5% acetonitrile 3 min, to 50% in 2 min, to 85% in 15 min, held 3 min, 100 µL/min
- REPORTED_CONDITIONS: column: Zorbax Extend-C18 2.1 x 50 mm; eluents: water / acetonitrile, 0.1% formic acid
READOUT_KIND: RP-LC retention time (s)

molecule=Cc1cc(C)c(S(=O)(=O)N2CCC(N3CCN(Cc4ccccc4)C(=O)C3=O)CC2)cc1C readout_kind="RP-LC retention time" obs_value=917
molecule=COc1cccc(-n2ccn3cc(-c4ccc(Br)cc4)nc3c2=O)c1 readout_kind="RP-LC retention time" obs_value=893
molecule="COc1ccc(N2CCN(C(=O)c3ccc4c(c3)N(C)C(=O)C3CCCCN43)CC2)cc1 (stereo not given)" readout_kind="RP-LC retention time" obs_value=832
molecule=CCc1nc2cc(-c3noc(-c4n[nH]c5c4CCCC5)n3)ccc2o1 readout_kind="RP-LC retention time" obs_value=1000
molecule=Cc1nccn1Cc1noc(-c2ccc(Cl)cc2)n1 readout_kind="RP-LC retention time" obs_value=638
molecule="COCC(=O)NC1CCN(c2ccc(C)c(C)c2)C1=O (stereo not given)" readout_kind="RP-LC retention time" obs_value=705
molecule=Cn1c(=O)sc2cc(S(=O)(=O)N3CCC(C(=O)NC4CC4)CC3)ccc21 readout_kind="RP-LC retention time" obs_value=670
molecule=O=C(Nc1ccc(OCc2nnc(-c3ccccc3)o2)cc1)c1ccc(Br)o1 readout_kind="RP-LC retention time" obs_value=936

A. O=C(O)C1CCN(c2ncnc3nc[nH]c23)CC1
B. COC(=O)C1=CN(c2ccc(F)cc2)c2ccccc2S1(=O)=O
Could you determine which record has the numerically smaller RP-LC retention time? Candidates: A and B Refer to your chosen item by its label in the answer.
A

###

- PROCEDURE_SUMMARY: gradient 5% acetonitrile 3 min, to 50% in 2 min, to 85% in 15 min, held 3 min, 100 µL/min
- REPORTED_CONDITIONS: column: Zorbax Extend-C18 2.1 x 50 mm; eluents: water / acetonitrile, 0.1% formic acid
READOUT_KIND: RP-LC retention time (s)

# count of solved cases: 3
compound="COC(=O)c1ccsc1NC(=O)C1COCC(=O)N1Cc1ccccc1 (stereo not given)" reading_unit=s obs_value=786
compound=COc1ccc(NC(=O)CN2c3ccc(F)cc3-c3ccccc3S2(=O)=O)c(OC)c1 reading_unit=s obs_value=975
compound="CCOC(=O)c1ccccc1NC(=O)CSc1ccc(N2CCCC(C(=O)NC3CC3)C2)nn1 (stereo not given)" reading_unit=s obs_value=680

a. CC(C)(C)NC(=O)Cc1cccn1-c1ccc(F)cc1
b. COc1cc2c(cc1CNC(=O)Cn1cnc3cc4c(cc31)OCCO4)OCCCO2
Could you kindly indicate whether a or b has the higher RP-LC retention time value? Refer to your chosen item by its label in the answer.
a
(a: 925 s, b: 629 s)

###

- PROCEDURE_SUMMARY: gradient 5% acetonitrile 3 min, to 50% in 2 min, to 85% in 15 min, held 3 min, 100 µL/min
- REPORTED_CONDITIONS: column: Zorbax Extend-C18 2.1 x 50 mm; eluents: water / acetonitrile, 0.1% formic acid
READOUT_KIND: RP-LC retention time (s)

molecule=C#CCOCC1CCN(C(=O)CC2CCCCC2)CC1 readout_kind="RP-LC retention time" obs_value=864

P. O=C(c1ccc(C(F)(F)F)cc1)N1CCC(n2c(-c3ccco3)nc3cccnc32)C1 (centres undefined)
Q. COc1ccc(OC)c(COCC(O)CN2CCN(Cc3ccccc3)CC2)c1 (centres undefined)
Could you kindly indicate whether P or Q has the higher RP-LC retention time value? Refer to your chosen item by its label in the answer.
P
(P: 826 s, Q: 557 s)

###

- PROCEDURE_SUMMARY: gradient 5% acetonitrile 3 min, to 50% in 2 min, to 85% in 15 min, held 3 min, 100 µL/min
- REPORTED_CONDITIONS: column: Zorbax Extend-C18 2.1 x 50 mm; eluents: water / acetonitrile, 0.1% formic acid
READOUT_KIND: RP-LC retention time (s)

compound=CCc1nccn1Cc1nc(-c2cc(OC)c(OC)c(OC)c2)no1 obs_value=621
compound=CNC(=O)c1ccccc1Nc1cc(Nc2ccc(N3CCOCC3)cc2OC)ncc1C(F)(F)F obs_value=764
compound=Cc1cc(C)cc(NC(=O)C2CCN(S(=O)(=O)c3cc(-c4noc(C)n4)cs3)CC2)c1 obs_value=953
compound=Cc1cc(NS(=O)(=O)c2ccc3c(c2)C(=O)N(C)c2ncccc2O3)ccc1F obs_value=951
compound="COC(=O)c1cc(S(=O)(=O)N2CCCC2C(=O)NCc2ccccc2)cn1C (stereo not given)" obs_value=781
compound=CCCNC(=O)CN1CCN(Cc2ccccc2)C1=O obs_value=675
compound=CN1CCN(C(=O)Cn2cccc2-c2nc(-c3ccc(Cl)cc3)cs2)CC1 obs_value=715
compound=O=C(c1cccs1)N1CCC(F)(C(=O)NC2CC2)CC1 obs_value=634
compound=CCn1c(=O)n(Cc2ccccc2C(F)(F)F)c2cncnc21 obs_value=834
compound="CN1CCN(C(=O)C2CC(=O)N(c3ccc4c(c3)CCN4C(=O)C3CC3)C2)CC1 (stereo not given)" obs_value=570

a. CCCCCCCCOC(=O)/C=C/c1ccc(O)c(O)c1
b. COc1ccc(-c2noc(C3CC(=O)N(c4ccc(C)c(C)c4)C3)n2)c(OC)c1 (stereo not given)
Could you determine which record has the numerically smaller RP-LC retention time? Candidates: a and b Refer to your chosen item by its label in the answer.
a

###

- PROCEDURE_SUMMARY: gradient 5% acetonitrile 3 min, to 50% in 2 min, to 85% in 15 min, held 3 min, 100 µL/min
- REPORTED_CONDITIONS: column: Zorbax Extend-C18 2.1 x 50 mm; eluents: water / acetonitrile, 0.1% formic acid
READOUT_KIND: RP-LC retention time (s)

# count of solved cases: 3
compound="COCCn1ncc(N2CCC(C(=O)N3CCc4ccccc43)C2)cc1=O (stereo unspecified)" readout_kind="RP-LC retention time" reading_unit=s obs_value=713
compound=Cc1ccc2cc(CCC(=O)O)c(=O)[nH]c2c1 readout_kind="RP-LC retention time" reading_unit=s obs_value=758
compound=COc1cc(Cl)ccc1-c1nc(-c2ccc3c(c2)oc(=O)n3C)no1 readout_kind="RP-LC retention time" reading_unit=s obs_value=1060

a. Clc1nc2nc3n(c2nc1Cl)CCC3
b. O=C(NCc1ccco1)c1c(O)c2cccnc2n(-c2ccc(F)cc2)c1=O
Could you kindly indicate whether a or b has the higher RP-LC retention time value? Refer to your chosen item by its label in the answer.
b
(b: 1280 s, a: 761 s)

P. O=C(NC1(c2nc(-c3cccnc3)no2)CCCCC1)c1ccc(F)c(F)c1
Q. O=C(c1cccs1)N1CCCCC1c1nncn1Cc1ccccc1 (stereo unspecified)
Could you determine which record has the numerically smaller RP-LC retention time? Candidates: P and Q Refer to your chosen item by its label in the answer.
Q
(Q: 642 s, P: 963 s)

###

- PROCEDURE_SUMMARY: gradient 5% acetonitrile 3 min, to 50% in 2 min, to 85% in 15 min, held 3 min, 100 µL/min
- REPORTED_CONDITIONS: column: Zorbax Extend-C18 2.1 x 50 mm; eluents: water / acetonitrile, 0.1% formic acid
READOUT_KIND: RP-LC retention time (s)

compound=O=C(CSc1ccc(-c2ccco2)nn1)Nc1ccc(F)cc1F obs_value=788
compound=O=C(NCc1ccccn1)c1csc(Nc2ccc(OC(F)(F)F)cc2)n1 obs_value=674
compound=CC(=O)N1CCC(C(=O)NCc2nn(Cc3ccccc3)c3ccccc23)CC1 obs_value=728
compound=O=C(Nc1ccc(Br)cc1F)Nc1c(-c2ccc(F)cc2)nc2ccccn12 obs_value=744
compound="Cc1nc2cc(N3CC(C(=O)Nc4ccc(F)c(C)c4)CC3=O)ccc2o1 (centres undefined)" obs_value=753
compound=CC(C)c1nc2cccnc2n1CCN1CCN(C(=O)Nc2ccccc2Br)CC1 obs_value=603
compound="O=C(CC1c2ncccc2C(=O)N1Cc1ccc(F)cc1)NCc1cc(F)ccc1F (centres undefined)" obs_value=735
compound=CCN(CC)CCCNc1ccc(-c2nc(-c3ccc(OC)cc3)no2)cn1 obs_value=681
compound=O=C(Nc1ccc(N2CCN(C3CCCC3)C2=O)nc1)c1ccccc1F obs_value=804
